Exercise: for every item that follows, state its recorded IC50.
target: human ETA receptors (Homo sapiens, UniProt P25101); construct: endogenous in cells; host or cells: TE 671 cells (ATCC HTB 139); test: Binding Test #1: inhibition of 125I-ET-1 binding to ETA receptors (TE 671 cell membranes); conditions: Table 2; † incubation at 24° C.; read-out: ETA
Report the figure in µM without appending any unit label.

Record Cc1noc(NS(=O)(=O)c2ccc(-c3ccccc3)cc2)c1C ; system human ETA receptors (Homo sapiens, UniProt P25101); IC50 = 6.3

Record Cc1onc(NS(=O)(=O)c2ccc(-c3ccccc3)cc2)c1Cl ; system human ETA receptors (Homo sapiens, UniProt P25101); IC50 = 18.6

Record Cc1noc(NS(=O)(=O)c2ccc(-c3ccccc3)cc2)c1Br ; system human ETA receptors (Homo sapiens, UniProt P25101); IC50 = 49

Record Cc1onc(NS(=O)(=O)c2ccc(-c3ccccc3)cc2)c1Br ; system human ETA receptors (Homo sapiens, UniProt P25101); IC50 = 49

Record CCCCCCCCCCCCCc1c(C(F)(F)F)noc1NS(=O)(=O)c1ccc(-c2ccccc2)cc1 ; system human ETA receptors (Homo sapiens, UniProt P25101); IC50 = 33

###

Exercise: for every item that follows, state its recorded pIC50.
biological target: human ETB receptor (Homo sapiens); construct: expressed in transfected cells; host or cells: COS7 cells; test: Binding Test #2: inhibition of 125I-ET-1 binding to ETB receptors (transfected COS7 cell membranes); conditions: Table 1; † incubation at 24° C.; read-out: ETB
Formally, pIC50 is defined as -log10 of the concentration c, with c in mol/L.

The value of pIC50 measured for the compound Cc1noc(NS(=O)(=O)c2ccc(-c3cc(C(F)(F)F)cc(C(F)(F)F)c3)s2)c1Br turned out to be 4.81

The value of pIC50 measured for the compound Cc1noc(NS(=O)(=O)c2ccc(-c3ccccc3)s2)c1Br turned out to be 5.62

The value of pIC50 measured for the compound CCc1ccc(-c2ccc(S(=O)(=O)Nc3onc(C)c3Br)s2)s1 turned out to be 5.11

The value of pIC50 measured for the compound Cc1ccc(CCc2cc(-c3ccc(C)cc3)sc2S(=O)(=O)Nc2onc(C)c2Br)cc1 turned out to be 5.68

The value of pIC50 measured for the compound CCCc1cc2c(cc1OCc1ccsc1S(=O)(=O)Nc1onc(C)c1Br)OCO2 turned out to be 5.82

The value of pIC50 measured for the compound Cc1noc(NS(=O)(=O)c2c(C(=O)O)n(C)c3ccccc23)c1Br turned out to be 3.98

The value of pIC50 measured for the compound Cc1noc(NS(=O)(=O)c2ccc(COCc3ccccc3)s2)c1Br turned out to be 5.05

The value of pIC50 measured for the compound CCCc1sc2ccccc2c1S(=O)(=O)Nc1onc(C)c1Br turned out to be 4.78

The value of pIC50 measured for the compound Cc1noc(NS(=O)(=O)c2ccsc2C(=O)c2ccc3c(c2)OCO3)c1Br turned out to be 4.82

###

Target: human ETB receptor (Homo sapiens, UniProt P24530)
Construct: expressed in transfected cells; host or cells: COS7 cells
Sequence (P24530 27-442): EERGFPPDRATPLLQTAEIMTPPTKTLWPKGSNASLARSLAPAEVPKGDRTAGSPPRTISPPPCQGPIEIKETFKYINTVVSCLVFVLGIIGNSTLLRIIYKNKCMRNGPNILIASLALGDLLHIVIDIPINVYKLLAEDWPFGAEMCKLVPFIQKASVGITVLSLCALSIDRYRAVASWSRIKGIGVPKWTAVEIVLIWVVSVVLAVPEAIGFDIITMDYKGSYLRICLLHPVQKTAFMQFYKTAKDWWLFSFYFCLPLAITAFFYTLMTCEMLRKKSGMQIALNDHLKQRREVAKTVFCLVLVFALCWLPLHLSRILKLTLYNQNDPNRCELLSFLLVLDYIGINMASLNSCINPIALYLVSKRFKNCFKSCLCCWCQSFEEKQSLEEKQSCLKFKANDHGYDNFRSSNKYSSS
Assay: Binding Test #2: inhibition of 125I-ET-1 binding to ETB receptors (transfected COS7 cell membranes)
Conditions: Table 1; † incubation at 24° C.; read-out: ETB
reported property: pIC50
Formally, pIC50 is defined as -log10 of the concentration c, with c in mol/L.

Record CCCc1ccc(-c2csc(S(=O)(=O)Nc3onc(C)c3Br)c2)cc1 ; system human ETB receptor (Homo sapiens, UniProt P24530); pIC50 = 6.36

Record COC(=O)c1ccc(-c2ccc(S(=O)(=O)Nc3onc(C)c3Br)s2)cc1 ; system human ETB receptor (Homo sapiens, UniProt P24530); pIC50 = 4.77

Record Cc1noc(NS(=O)(=O)c2ccsc2CC2(c3ccc4c(c3)OCO4)OCCO2)c1Cl ; system human ETB receptor (Homo sapiens, UniProt P24530); pIC50 = 5.68

Record Cc1cc2c(cc1CCc1sccc1S(=O)(=O)Nc1onc(C)c1Br)OCO2 ; system human ETB receptor (Homo sapiens, UniProt P24530); pIC50 = 5.05

Record Cc1noc(NS(=O)(=O)c2ccsc2C/C=C/c2ccc3c(c2)OCO3)c1Br ; system human ETB receptor (Homo sapiens, UniProt P24530); pIC50 = 5.85

Record COc1cc(NC(=O)c2sccc2S(=O)(=O)Nc2onc(C)c2Cl)c(C(N)=O)cc1OC ; system human ETB receptor (Homo sapiens, UniProt P24530); pIC50 = 4.21

Record Cc1noc(NS(=O)(=O)c2c(Cc3ccc4c(c3)OCO4)sc3ccccc23)c1Br ; system human ETB receptor (Homo sapiens, UniProt P24530); pIC50 = 6.03

Record Cc1ccc(Cc2cc(-c3ccc(C)cc3)sc2S(=O)(=O)Nc2onc(C)c2Br)cc1 ; system human ETB receptor (Homo sapiens, UniProt P24530); pIC50 = 5.81

###

molecular target: human ETB receptor (Homo sapiens, UniProt P24530); construct: expressed in transfected cells; host or cells: COS7 cells; assay: Binding Test #2: inhibition of 125I-ET-1 binding to ETB receptors (transfected COS7 cell membranes); details: Table 2; incubation at 4° C.; read-out: ETB
pIC50: −log10 of the molar value.
Outcome label depends on pIC50 relative to 6: at/above gives condition met, below gives condition not met.

query: Answer whether pIC50 of Cc1onc(NS(=O)(=O)c2ccc(-c3ccccc3)cc2)c1Br is greater than or equal to 6.
result: condition met

query: Answer whether pIC50 of Cc1noc(NS(=O)(=O)c2ccccc2-c2ccccc2)c1Br is greater than or equal to 6.
result: condition not met

query: Answer whether pIC50 of Cc1noc(NS(=O)(=O)c2ccccc2-c2ccccc2)c1C is greater than or equal to 6.
result: condition not met

query: Answer whether pIC50 of Cc1noc(NS(=O)(=O)c2cccc(-c3ccccc3)c2)c1C is greater than or equal to 6.
result: condition not met

query: Answer whether pIC50 of Cc1noc(NS(=O)(=O)c2ccc(-c3ccccc3)cc2)c1Cl is greater than or equal to 6.
result: condition met

query: Answer whether pIC50 of Cc1onc(NS(=O)(=O)c2ccc(-c3ccccc3)cc2)c1Cl is greater than or equal to 6.
result: condition met

query: Answer whether pIC50 of Cc1c(C(F)(F)F)noc1NS(=O)(=O)c1ccc(-c2ccccc2)cc1 is greater than or equal to 6.
result: condition not met

###

Biological target: human ETA receptors (Homo sapiens)
Construct: endogenous in cells; host or cells: TE 671 cells (ATCC HTB 139)
Sequence (P25101 21-427): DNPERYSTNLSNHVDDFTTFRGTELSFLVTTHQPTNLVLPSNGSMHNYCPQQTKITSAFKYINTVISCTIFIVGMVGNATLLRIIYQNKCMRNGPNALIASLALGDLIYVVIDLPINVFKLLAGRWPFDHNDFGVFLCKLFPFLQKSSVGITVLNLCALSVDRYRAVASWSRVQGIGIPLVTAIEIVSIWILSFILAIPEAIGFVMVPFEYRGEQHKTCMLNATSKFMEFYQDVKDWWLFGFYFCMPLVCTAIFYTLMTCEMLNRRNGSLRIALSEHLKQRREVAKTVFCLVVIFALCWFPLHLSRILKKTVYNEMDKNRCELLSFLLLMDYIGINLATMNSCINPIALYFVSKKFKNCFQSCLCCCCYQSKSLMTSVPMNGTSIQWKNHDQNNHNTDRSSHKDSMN
Assay: Binding Test #1: inhibition of 125I-ET-1 binding to ETA receptors (TE 671 cell membranes)
Conditions: Table 1; incubation at 4° C.; read-out: ETA
reported property: pIC50
Formally, pIC50 is defined as -log10 of the concentration c, with c in mol/L.

The value of pIC50 measured for the compound Cc1noc(NS(=O)(=O)c2cc3ccccc3s2)c1C turned out to be 5.14

The value of pIC50 measured for the compound Cc1noc(NS(=O)(=O)c2ccc(-c3ccccc3)s2)c1C turned out to be 5.59

The value of pIC50 measured for the compound Cc1noc(NS(=O)(=O)c2ccsc2C(=O)Nc2ccccc2)c1Br turned out to be 8.27

The value of pIC50 measured for the compound Cc1ccccc1-c1ccc(S(=O)(=O)Nc2onc(C)c2Br)s1 turned out to be 6.36

The value of pIC50 measured for the compound Cc1noc(NS(=O)(=O)c2cc3ccccc3o2)c1C turned out to be 5.28

The value of pIC50 measured for the compound Cc1noc(NS(=O)(=O)c2ccsc2C(=O)Nc2ccccc2)c1C turned out to be 7.74

The value of pIC50 measured for the compound Cc1noc(NS(=O)(=O)c2ccc(-c3ccccc3)s2)c1Br turned out to be 5.45

The value of pIC50 measured for the compound Cc1noc(NS(=O)(=O)c2ccsc2C(=O)Nc2ccc(C(C)(C)C)cc2)c1Br turned out to be 7.96

The value of pIC50 measured for the compound Cc1noc(NS(=O)(=O)c2cc(CCc3ccccc3)cs2)c1Br turned out to be 5.18

The value of pIC50 measured for the compound CCc1ccc(NC(=O)c2sccc2S(=O)(=O)Nc2onc(C)c2Br)cc1 turned out to be 8.80

The value of pIC50 measured for the compound Cc1noc(NS(=O)(=O)c2c(Cc3ccc4c(c3)OCO4)sc3ccccc23)c1Br turned out to be 8.82
